- ASSAYED_SYSTEM: T1, GST-MOB1B, N-terminal 32-residue truncated form (33-216) (mouse, UniProt Q8BPB0 33-216)
- T1 construct: MOB1B, mouse, residues 33-216; also called NΔ32; GST-N-truncated Δ32 MOB1B; source: E. coli; GST fusion, purification of this form not described; not shown: GST, N-terminal, kept
- T1 sequence (looked up): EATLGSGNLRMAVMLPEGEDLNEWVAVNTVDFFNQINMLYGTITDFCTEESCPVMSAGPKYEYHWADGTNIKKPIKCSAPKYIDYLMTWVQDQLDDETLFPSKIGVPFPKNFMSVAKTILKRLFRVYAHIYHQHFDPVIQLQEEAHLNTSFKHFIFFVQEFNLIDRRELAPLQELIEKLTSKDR
- ASSAY_PROCEDURE: pull-down; GST-MOB1B and LATS1 proteins (40 μM) mixed 1:1 in 20 mM Tris-HCl (pH 7.5), 0.3 M NaCl, 1 mM DTT, applied to Glutathione Sepharose 4B, washed at 4 °C, eluted with glutathione, SDS-PAGE with Coomassie blue, band intensities
- RECORDED_CONDITIONS: both partners purified
Below, each of the binders is paired with its reported binding relative to the wild-type value.

Solved entries (count: 3):
INSERT INTO results (binder, measurement_type, measured_result) VALUES
  ('NTR domain (604-703) of LATS1, R696A (domain or fragment, mouse, UniProt Q8BYR2 604-703, looked up, source: E. coli, resolubilized, purified (Ni-NTA, Superdex 75pg)) KEKKQITTSPITVRKNKKDEERRESRIQSYSPQAFKFFMEQHVENVLKSHQQRLHRKKQLENEMMRVGLSQDAQDQMRKMLCQKESNYIRLKAAKMDKSM', 'binding relative to the wild-type', '< 20%'),
  ('NTR domain (604-703) of LATS1, R656A (domain or fragment, mouse, UniProt Q8BYR2 604-703, looked up, source: E. coli, resolubilized, purified (Ni-NTA, Superdex 75pg)) KEKKQITTSPITVRKNKKDEERRESRIQSYSPQAFKFFMEQHVENVLKSHQQALHRKKQLENEMMRVGLSQDAQDQMRKMLCQKESNYIRLKRAKMDKSM', 'binding relative to the wild-type', '< 20%'),
  ('NTR domain (604-703) of LATS1, R693A (domain or fragment, mouse, UniProt Q8BYR2 604-703, looked up, source: E. coli, resolubilized, purified (Ni-NTA, Superdex 75pg)) KEKKQITTSPITVRKNKKDEERRESRIQSYSPQAFKFFMEQHVENVLKSHQQRLHRKKQLENEMMRVGLSQDAQDQMRKMLCQKESNYIALKRAKMDKSM', 'binding relative to the wild-type', '< 20%');

# context switch: different binder, same binding relative to the wild-type
Query: Would you kindly share the measured binding relative to the wild-type for NTR domain (604-703) of LATS1, S689E (domain or fragment, mouse, UniProt Q8BYR2 604-703, looked up, also called phosphomimetic substitution; source: E. coli, resolubilized, purified (Ni-NTA, Superdex 75pg)) KEKKQITTSPITVRKNKKDEERRESRIQSYSPQAFKFFMEQHVENVLKSHQQRLHRKKQLENEMMRVGLSQDAQDQMRKMLCQKEENYIRLKRAKMDKSM ?
Result: < 10%
